Assay: Pharmacokinetic analysis of RA in an SH-SY5Y xenograft model (retinoid concentrations in plasma, liver, tumour by LC/MS)
Format: in vivo, CD-1 nude mice
Details: female, CD-1 nu/nu (athymic nude), mouse, liver, po, 100 mg kg^−1, after 13cisRA 100 mg kg^−1 oral; liver; 2 h; label = retinoid measured; read-out: Liver concentration, 2 h
measureName: concentration at 2 h (ng/g)

(a) CC1=C(/C=C/C(C)=C/C=C/C(C)=C\C(=O)O)C(C)(C)CCC1 [13cisRA, 13-cis-retinoic acid]
(b) CC1=C(/C=C/C(C)=C/C=C/C(C)=C/C(=O)O)C(C)(C)CCC1 [ATRA, all-trans-retinoic acid]
INPUT: Of a and b , whose reported concentration at 2 h is numerically smaller? Lab note: record the label of whichever item you select.
OUTPUT: b

====

Assay: Pharmacokinetic analysis of RA in an SH-SY5Y xenograft model (retinoid concentrations in plasma, liver, tumour by LC/MS)
Type: in vivo, CD-1 nude mice
Conditions: after ATRA 100 mg kg^−1 oral; SH-SY5Y tumour; 0.5 h; label = retinoid measured
measureName: % Total retinoids, tumour, 0.5 h (%)

- compound: "CC1=C(/C=C/C(C)=C/C=C/C(C)=C\\C(=O)O)C(C)(C)CCC1 [13cisRA, 13-cis-retinoic acid]"
  measuredNumber: 2

(A) CC1=C(/C=C/C(C)=C/C=C/C(C)=C/C(=O)O)C(C)(C)CCC1 [ATRA, all-trans-retinoic acid]
(B) CC1=C(/C=C/C(C)=C/C=C/C(C)=C\C(=O)O)C(C)(C)CCC1=O [13cis-4-oxoRA, 13-cis-4-oxo-RA]
(C) CC1=C(/C=C/C(C)=C/C=C/C(C)=C/C(=O)O)C(C)(C)CCC1=O [AT-4-oxoRA, all-trans-4-oxo-RA]
INPUT: Number of compounds to sort: 3. Sort criterion: % Total retinoids, tumour, 0.5 h, ascending. Would you mind listing the labels in the order asked for?
OUTPUT: B, C, A

====

Assay: Pharmacokinetic analysis of RA in an SH-SY5Y xenograft model (retinoid concentrations in plasma, liver, tumour by LC/MS)
Format: in vivo, CD-1 nude mice
Details: female, CD-1 nu/nu (athymic nude), mouse, liver, po, 100 mg kg^−1, after ATRA 100 mg kg^−1 oral; liver; 2 h; label = retinoid measured; read-out: Liver concentration, 2 h
measureName: concentration at 2 h (ng/g)

(a) CC1=C(/C=C/C(C)=C/C=C/C(C)=C\C(=O)O)C(C)(C)CCC1 [13cisRA, 13-cis-retinoic acid]
(b) CC1=C(/C=C/C(C)=C/C=C/C(C)=C/C(=O)O)C(C)(C)CCC1 [ATRA, all-trans-retinoic acid]
INPUT: Just curious, which one has the larger concentration at 2 h reading, a or b ? Choose, then provide that item's label.
OUTPUT: b
(b: 6920 ng/g, a: 400 ng/g)

====

Test: Pharmacokinetic analysis of RA in an SH-SY5Y xenograft model (retinoid concentrations in plasma, liver, tumour by LC/MS)
Type: in vivo, CD-1 nude mice
Conditions: after 13cisRA 100 mg kg^−1 oral; liver; 6 h; label = retinoid measured
measureName: % Total retinoids, liver, 6 h (%)

- molecule: "CC1=C(/C=C/C(C)=C/C=C/C(C)=C/C(=O)O)C(C)(C)CCC1=O [AT-4-oxoRA, all-trans-4-oxo-RA]"
  measureName: "% Total retinoids, liver, 6 h"
  measuredNumber: 12

(A) CC1=C(/C=C/C(C)=C/C=C/C(C)=C\C(=O)O)C(C)(C)CCC1 [13cisRA, 13-cis-retinoic acid]
(B) CC1=C(/C=C/C(C)=C/C=C/C(C)=C\C(=O)O)C(C)(C)CCC1=O [13cis-4-oxoRA, 13-cis-4-oxo-RA]
INPUT: Sort A and B by % Total retinoids, liver, 6 h descending and give the first. Indicate your choice by writing its label.
OUTPUT: B

====

Assay: Pharmacokinetic analysis of RA in an SH-SY5Y xenograft model (retinoid concentrations in plasma, liver, tumour by LC/MS)
Type: in vivo, CD-1 nude mice
Details: after ATRA 100 mg kg^−1 oral; SH-SY5Y tumour; 6 h; label = retinoid measured
measureName: % Total retinoids, tumour, 6 h (%)

- compound: "CC1=C(/C=C/C(C)=C/C=C/C(C)=C/C(=O)O)C(C)(C)CCC1 [ATRA, all-trans-retinoic acid]"
  readoutUnits: "%"
  % Total retinoids, tumour, 6 h: 80
- compound: "CC1=C(/C=C/C(C)=C/C=C/C(C)=C/C(=O)O)C(C)(C)CCC1=O [AT-4-oxoRA, all-trans-4-oxo-RA]"
  readoutUnits: "%"
  % Total retinoids, tumour, 6 h: 17

(a) CC1=C(/C=C/C(C)=C/C=C/C(C)=C\C(=O)O)C(C)(C)CCC1 [13cisRA, 13-cis-retinoic acid]
(b) CC1=C(/C=C/C(C)=C/C=C/C(C)=C\C(=O)O)C(C)(C)CCC1=O [13cis-4-oxoRA, 13-cis-4-oxo-RA]
INPUT: Lab note: check whether a or b shows the higher recorded % Total retinoids, tumour, 6 h. State your choice using its label.
OUTPUT: a

====

Assay: Pharmacokinetic analysis of RA in an SH-SY5Y xenograft model (retinoid concentrations in plasma, liver, tumour by LC/MS)
Format: in vivo, CD-1 nude mice
Details: after 13cisRA 100 mg kg^−1 oral; SH-SY5Y tumour; 0.5 h; label = retinoid measured
measureName: % Total retinoids, tumour, 0.5 h (%)

- molecule: "CC1=C(/C=C/C(C)=C/C=C/C(C)=C/C(=O)O)C(C)(C)CCC1 [ATRA, all-trans-retinoic acid]"
  readoutUnits: "%"
  % Total retinoids, tumour, 0.5 h: 7

(a) CC1=C(/C=C/C(C)=C/C=C/C(C)=C\C(=O)O)C(C)(C)CCC1 [13cisRA, 13-cis-retinoic acid]
(b) CC1=C(/C=C/C(C)=C/C=C/C(C)=C\C(=O)O)C(C)(C)CCC1=O [13cis-4-oxoRA, 13-cis-4-oxo-RA]
INPUT: Determine, for a and b , which has the greater value of % Total retinoids, tumour, 0.5 h. Respond using the label that marks the chosen record.
OUTPUT: a

====

Assay: Pharmacokinetic analysis of RA in an SH-SY5Y xenograft model (retinoid concentrations in plasma, liver, tumour by LC/MS)
Format: in vivo, CD-1 nude mice
Conditions: female, CD-1 nu/nu (athymic nude), mouse, plasma; 100 mg kg^−1 oral; sampled at 0.5, 2, 6 h; read-out: Time of peak plasma levels
measureName: Tmax (h)

- molecule: "CC1=C(/C=C/C(C)=C/C=C/C(C)=C\\C(=O)O)C(C)(C)CCC1 [13cisRA, 13-cis-retinoic acid]"
  readoutUnits: "h"
  Tmax: 2
- molecule: "CC1=C(/C=C/C(C)=C/C=C/C(C)=C/C(=O)O)C(C)(C)CCC1 [ATRA, all-trans-retinoic acid]"
  readoutUnits: "h"
  Tmax: 2

====

Experiment: Effect of R116010 on retinoid concentrations (plasma, liver, tumour) in an SH-SY5Y xenograft model, LC/MS
Format: in vivo, CD-1 nude mice
Settings: female, CD-1 nu/nu (athymic nude), mouse, tumour (SH-SY5Y xenograft), oral; 13cisRA 100 mg kg^−1 alone; SH-SY5Y tumour; 6 h; read-out: Tumour 13cisRA levels, control animals
measureName: concentration at 6 h (ng/g)
Give just the numeric value; ng/g need not be written.

INPUT: Complete the entry with concentration at 6 h for CC1=C(/C=C/C(C)=C/C=C/C(C)=C\C(=O)O)C(C)(C)CCC1 [13cisRA, 13-cis-retinoic acid]
OUTPUT: 220

====

Test: Pharmacokinetic analysis of RA in an SH-SY5Y xenograft model (retinoid concentrations in plasma, liver, tumour by LC/MS)
Type: in vivo, CD-1 nude mice
Conditions: after ATRA 100 mg kg^−1 oral; SH-SY5Y tumour; 2 h; label = retinoid measured
measureName: % Total retinoids, tumour, 2 h (%)

Here is how some compounds turned out for % Total retinoids, tumour, 2 h.
- compound: "CC1=C(/C=C/C(C)=C/C=C/C(C)=C/C(=O)O)C(C)(C)CCC1 [ATRA, all-trans-retinoic acid]"
  measureName: "% Total retinoids, tumour, 2 h"
  readoutUnits: "%"
  measuredNumber: 95
- compound: "CC1=C(/C=C/C(C)=C/C=C/C(C)=C\\C(=O)O)C(C)(C)CCC1=O [13cis-4-oxoRA, 13-cis-4-oxo-RA]"
  measureName: "% Total retinoids, tumour, 2 h"
  readoutUnits: "%"
  measuredNumber: 0

(I) CC1=C(/C=C/C(C)=C/C=C/C(C)=C/C(=O)O)C(C)(C)CCC1=O [AT-4-oxoRA, all-trans-4-oxo-RA]
(II) CC1=C(/C=C/C(C)=C/C=C/C(C)=C\C(=O)O)C(C)(C)CCC1 [13cisRA, 13-cis-retinoic acid]
INPUT: Between the entries labelled I and II , which has a larger % Total retinoids, tumour, 2 h value on record? Returns: label corresponding to the selected item.
OUTPUT: II
(II: 3%, I: 2%)

Hey, just so you know, these numbers are from paper PMC2359919.
